Molecular target: Recombinant human Cbl-b (aa 36-427) (Homo sapiens, UniProt Q13191)
Sequence (Q13191 36-427): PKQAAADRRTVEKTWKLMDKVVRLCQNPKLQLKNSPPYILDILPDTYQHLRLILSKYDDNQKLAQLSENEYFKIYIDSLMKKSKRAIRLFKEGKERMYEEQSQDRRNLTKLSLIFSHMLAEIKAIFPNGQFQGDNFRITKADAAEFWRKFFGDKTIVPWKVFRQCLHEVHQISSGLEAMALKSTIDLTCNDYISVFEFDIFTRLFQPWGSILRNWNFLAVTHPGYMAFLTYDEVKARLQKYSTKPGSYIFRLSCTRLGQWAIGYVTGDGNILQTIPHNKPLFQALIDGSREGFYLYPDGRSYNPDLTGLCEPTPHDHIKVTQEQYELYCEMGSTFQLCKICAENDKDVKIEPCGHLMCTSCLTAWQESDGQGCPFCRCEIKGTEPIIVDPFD
Assay: Cbl-b Biochemical Assay (TR-FRET)
Conditions: read-out: TR-FRET hCbl-b IC50
outcome_measure: IC50

Q: Report measured IC50; entry is `Cn1cnnc1-c1cc(F)ccc1-c1cccc(-c2nc3cc(CN4CO[C@H]5CCC[C@H]54)cc(C(F)(F)F)c3o2)c1`
A: < 200 nM

Q: Quickly give me recorded IC50 for `Cn1cnnc1-c1cc(F)ccc1-c1cccc(-c2nc3ccc(CN[C@@H]4CCC[C@@H]4O)cn3n2)c1`
A: < 200 nM

Q: Please look at this compound and report its IC50: `COC(=O)c1ccc2[nH]c(-c3cc(-c4ccc(F)cc4-c4nncn4C)cc(C4CC4)n3)nc2c1`
A: 10000 to 50000 nM

----------
Target: Recombinant human c-Cbl (aa 47-435) (Homo sapiens)
Sequence (P22681 47-435): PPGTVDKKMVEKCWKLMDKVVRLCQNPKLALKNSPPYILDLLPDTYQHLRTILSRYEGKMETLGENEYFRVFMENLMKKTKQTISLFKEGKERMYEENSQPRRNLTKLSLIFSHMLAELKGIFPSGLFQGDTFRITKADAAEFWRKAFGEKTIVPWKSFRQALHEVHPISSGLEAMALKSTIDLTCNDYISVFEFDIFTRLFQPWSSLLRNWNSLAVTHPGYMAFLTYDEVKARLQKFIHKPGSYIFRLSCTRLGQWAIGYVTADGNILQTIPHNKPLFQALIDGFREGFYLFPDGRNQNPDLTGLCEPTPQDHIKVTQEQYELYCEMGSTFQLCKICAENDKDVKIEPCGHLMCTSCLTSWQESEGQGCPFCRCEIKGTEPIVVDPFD
Assay: c-Cbl Biochemical Assay (TR-FRET)
Details: hc-Cbl Biochemical Assay (TR-FRET); read-out: TR-FRET hcCbl IC50
outcome_measure: IC50

Q: Please give measured IC50 of the following entry: `Cc1cc(CO)cc2nc(-c3cc(-c4ccc(F)cc4-c4nncn4C)cc(C4CC4)n3)oc12`
A: 1000 to 10000 nM

Q: Please list IC50 recorded for the molecule `C[C@@H]1CCCN(Cc2cc(C(F)(F)F)c3[nH]c(-c4cccc(-c5ccccc5-c5nncn5C)c4)nc3c2)C1`
A: 10000 to 50000 nM

Q: Please give measured IC50 of the following entry: `Cn1cnnc1-c1cc(F)ccc1-c1cccc(-c2nc3cc(CN[C@@H]4CCC[C@@H]4O)cc(C(C)(C)C)c3o2)c1`
A: < 200 nM

----------
Tested on: Jurkat (clone E6-1) cells with NFAT luciferase reporter
Experiment: Jurkat reporter assay (NFAT Luciferase)
Assay type: cell-based
Details: Homo sapiens; Jurkat NFAT luciferase reporter cells, anti-CD3 stimulation, 6 hr; read-out: Jurkat NFAT EC50
This section presents molecules with their documented EC50 values.

Cn1cnnc1-c1cc(C#N)ccc1-c1cccc(-c2nc3cc(CN[C@@H]4CCC[C@@H]4O)cc(C(F)(F)F)c3[nH]2)c1 :: 200 to 1000 nM
Cn1cnnc1-c1cc(F)ccc1-c1cccc(-c2nc3cc(CN[C@@H]4CCC[C@@H]4O)cc(F)c3o2)c1 :: < 200 nM
CC(c1cc(C(F)(F)F)c2[nH]c(-c3cccc(C4(Cc5nncn5C)COC4)c3)nc2c1)N1CCC2(CC2)C1 (stereo not drawn) :: 1000 to 10000 nM

Q: Note down EC50 recorded for `COC[C@H](C)NCc1cc(C)c2oc(-c3cccc(-c4ccc(F)cc4-c4nncn4C)c3)nc2c1`
A: < 200 nM

Q: Output measured EC50 for this item: `COCCNCc1cc(F)c2oc(-c3cc(-c4ccc(F)cc4-c4nncn4C)cc(C4CC4)n3)nc2c1`
A: < 200 nM

Q: Quick one: give measured EC50 for `C[C@H](c1cc(C(F)(F)F)c2oc(-c3cccc(C4(Cc5nncn5C)COC4)c3)nc2c1)N1CCC2(CC2)C1`
A: 200 to 1000 nM

----------
Molecular target: Recombinant human Cbl-b (aa 36-427) (Homo sapiens, UniProt Q13191)
Assay: Cbl-b Biochemical Assay (TR-FRET)
Conditions: read-out: TR-FRET hCbl-b IC50
pIC50: −log10 of the molar value.
pIC50 values for the compounds below.

Below: 6 compounds and their reported pIC50.
Cn1cnnc1-c1cc(F)ccc1-c1cccc(-c2nc3cc(CNC4(CO)COC4)cc(C(F)(F)F)c3[nH]2)c1 [BS-1] :: > 6.70
Cn1cnnc1-c1cc(F)ccc1-c1cccc(-c2nc3cc(C(NCC4CCC4)C(F)(F)F)cc(C4CC4)c3o2)c1 (racemic) [IO-4] :: 5.00 to 6.00
[2H]C([2H])(NCC1(O)CCC1)c1cc(C(F)(F)F)c2oc(-c3cccc(-c4ccc(F)cc4-c4nncn4C)c3)nc2c1 [HB-1] :: > 6.70
Cn1cnnc1-c1cc(F)ccc1-c1cccc(-c2nc3cc(CNCC(C)(C)O)c(F)c(F)c3o2)c1 [JD-1] :: > 6.70
Cn1cnnc1[C@]1(c2cccc(-c3nc4cc(CO)cc(C(F)(F)F)c4o3)c2)C[C@H](C)C1 [ADD-1] :: 6.00 to 6.70
Cc1cc(CO)cc2nc(-c3cc(-c4ccc(F)cc4-c4nncn4C)cc(C4CC4)n3)oc12 [AET-1] :: 6.00 to 6.70

Q: Let me know recorded pIC50 for Cn1cnnc1-c1cc(F)ccc1-c1cc(-c2nc3cc(CNCC(C)(C)O)c(F)c(F)c3o2)nc(C2CC2)c1 [AGF-1] , thanks.
A: > 6.70

Q: Given Cn1cnnc1-c1ccccc1-c1cccc(-c2cc(C(F)(F)F)c(C(=O)O)[nH]c2=O)c1 [CH-3] , respond with its pIC50.
A: 4.30 to 5.00

Q: Look up and report measured pIC50 for this entry: C[C@@H]1CCCN(Cc2cc(C(F)(F)F)c3[nH]c(-c4cccc(-c5ccccc5-c5nncn5C)c4)nc3c2)C1 [AAJ-1]
A: 5.00 to 6.00

Q: Retrieve pIC50 measured for CCNCc1cc2nc(-c3cc(-c4ccc(F)cc4-c4nncn4C)cc(C4CC4)n3)oc2c(F)c1F [AGZ-2] and print it.
A: > 6.70

Q: Entry Cn1cnnc1-c1cc(F)ccc1-c1cccc(-c2nc3cc(CNCC4(O)CCCC4)cc(C(F)(F)F)c3o2)c1 [AK-2] needs its pIC50 filled in; supply it.
A: > 6.70

Q: Annotate the compound Cn1cnnc1-c1cc(F)ccc1-c1cc(-c2nc3cc(CN[C@@H]4CCC[C@@H]4O)ccc3o2)nc(C2CC2)c1 [AEH-2] with its measured pIC50.
A: > 6.70

----------
Biological target: Recombinant human c-Cbl (aa 47-435) (Homo sapiens, UniProt P22681)
Assay: c-Cbl Biochemical Assay (TR-FRET)
Details: hc-Cbl Biochemical Assay (TR-FRET); read-out: TR-FRET hcCbl IC50
outcome_measure: IC50

COc1cc(CNCCOC(C)C)cc2nc(-c3cccc(-c4ccc(F)cc4-c4nncn4C)c3)oc12 [GE-2, formic Acid] :: 200 to 1000 nM
Cn1cnnc1-c1cc(F)ccc1-c1cc(-c2nc3cc(C(C)(C)O)c(F)c(F)c3o2)nc(C2CC2)c1 [AHL-7] :: 1000 to 10000 nM
Cn1cnnc1-c1cc(F)ccc1-c1cccc(-c2nc3cc(CO)cc(C(C)(F)F)c3o2)c1 [FF-6] :: 200 to 1000 nM

Q: Tell me IC50 reported for COc1cc(CNC[C@H]2CCCO2)cc2nc(-c3cccc(-c4ccc(F)cc4-c4nncn4C)c3)oc12 [FR-1]
A: 200 to 1000 nM

Q: Supply IC50 value. Item: Cc1c(F)c(CNCC(C)(C)O)cc2nc(-c3cccc(-c4ccc(F)cc4-c4nncn4C)c3)oc12 [AHK-4]
A: < 200 nM

Q: Consider the molecule Cn1cnnc1-c1cc(F)ccc1-c1cccc(-c2nc3cc(CNC[C@H](O)C(F)(F)F)cc(C(F)(F)F)c3o2)c1 [DM-2] and give its recorded IC50.
A: < 200 nM

Q: Specify IC50 for Cn1cnnc1-c1cc(F)ccc1-c1cccc(-c2nc3cc(CN[C@@H]4CCC[C@@H]4O)cc(C(F)F)c3o2)c1 [EY-2] and stop.
A: < 200 nM

Q: Tell us which IC50 value is on record for COCCNCc1ccc2oc(-c3cc(-c4ccc(C#N)cc4-c4nncn4C)cc(C4CC4)n3)nc2c1 [AEN-15]
A: 200 to 1000 nM

Q: Give recorded IC50. C[C@H](NCc1cc(C(F)(F)F)c2oc(-c3cccc(-c4ccc(F)cc4-c4nncn4C)c3)nc2c1)C1CCC1 [GW-2]
A: < 200 nM

----------
Biological target: Recombinant human c-Cbl (aa 47-435) (Homo sapiens)
Test: c-Cbl Biochemical Assay (TR-FRET)
Settings: hc-Cbl Biochemical Assay (TR-FRET); read-out: TR-FRET hcCbl IC50
outcome_measure: IC50

Please review the entries below; each comes with its answer.
COCCNCc1cc2nc(-c3cccc(-c4ccc(F)cc4-c4nncn4C)c3)oc2c(F)c1F :: < 200 nM
Cn1cnnc1-c1cc(F)ccc1-c1cccc(-c2nc3cc(CNCC4(O)CC4)cc(C(F)(F)F)c3[nH]2)c1 :: 1000 to 10000 nM
COC(=O)c1ccc2oc(-c3cc(-c4ccc(F)cc4-c4nncn4C)cc(C4CC4)n3)nc2c1 :: 10000 to 50000 nM

Q: Supply recorded IC50 for CC(Cc1nncn1C)c1cccc(-c2nc3ccc(C(=O)N4CCN(C)CC4)c(C(F)(F)F)c3[nH]2)c1 (racemic) here.
A: 10000 to 50000 nM

Q: Please indicate IC50 recorded for `Cn1cnnc1-c1cc(F)ccc1-c1cccc(-c2nc3ccc(CN[C@@H]4CCC[C@@H]4O)cc3o2)c1`
A: 200 to 1000 nM

Q: Input CC(NCC1(O)CCC1)c1cc(F)c2oc(-c3cc(-c4ccc(F)cc4-c4nncn4C)cc(C4CC4)n3)nc2c1 (stereo in doubt) [AFQ-6] , output reported IC50.
A: < 200 nM
